# Test system: biotinyl-Trp-oxazolone
# experimental protocol: self-aminoacylation, catalytic enhancement (BWO) (fold over background); higher = more active; k-Seq, kA / k0A0; sequences stand for … in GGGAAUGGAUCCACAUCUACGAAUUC…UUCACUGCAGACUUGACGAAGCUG
Variants at the floor of the assay were thinned out.
measured attribute: self-aminoacylation

biopolymer_sequence="CUACAUCGAACAAUCGGUCUG [Fam1A.1 aminoacylation ribozyme variant]" measured_attribute=self-aminoacylation numeric_value=1.17
biopolymer_sequence="GUUACCCUGGACAUCGAGUGA [Fam2.1 aminoacylation ribozyme variant]" measured_attribute=self-aminoacylation numeric_value=9.84
biopolymer_sequence="AGUCACCUAGGACAUCGGGUG [Fam2.2 aminoacylation ribozyme variant]" measured_attribute=self-aminoacylation numeric_value=6.31
biopolymer_sequence="AUUACCUUGGUCAACGAGUGA [Fam2.1 aminoacylation ribozyme variant]" measured_attribute=self-aminoacylation numeric_value=6.5
biopolymer_sequence="AAGUUUGCCACUAGUCGCAAG [Fam3.1 aminoacylation ribozyme variant]" measured_attribute=self-aminoacylation numeric_value=0.807
biopolymer_sequence="CUACACUUCAAGCAAUCGGUA [Fam1B.1 aminoacylation ribozyme variant]" measured_attribute=self-aminoacylation numeric_value=0.846
biopolymer_sequence="AUUCACUUAGGUCAUCGGAUG [Fam2.2 aminoacylation ribozyme variant]" measured_attribute=self-aminoacylation numeric_value=0.528
biopolymer_sequence="AUUCACUUAAGUCAUCGGGUG [Fam2.2 aminoacylation ribozyme variant]" measured_attribute=self-aminoacylation numeric_value=9.67
biopolymer_sequence="AAGUUUACUAAUAGUCGCAAU [Fam3.1 aminoacylation ribozyme variant]" measured_attribute=self-aminoacylation numeric_value=1.99
biopolymer_sequence="CCAGACUUCAAACAAUCGGUC [Fam1B.1 aminoacylation ribozyme variant]" measured_attribute=self-aminoacylation numeric_value=40.2
biopolymer_sequence="CCACACUUCCAGCAAUCGAUC [Fam1B.1 aminoacylation ribozyme variant]" measured_attribute=self-aminoacylation numeric_value=0.611
biopolymer_sequence="AUUAUUCUGGUCAUCGAGUGA [Fam2.1 aminoacylation ribozyme variant]" measured_attribute=self-aminoacylation numeric_value=7.13
biopolymer_sequence="AAGUUUGGCAAUAGUCGCAAG [Fam3.1 aminoacylation ribozyme variant]" measured_attribute=self-aminoacylation numeric_value=1.49
biopolymer_sequence="AAGGUUUCUAAUAGUCGCAAG [Fam3.1 aminoacylation ribozyme variant]" measured_attribute=self-aminoacylation numeric_value=1.6
biopolymer_sequence="AUUCACCUAGAGCAUCGGGUG [Fam2.2 aminoacylation ribozyme variant]" measured_attribute=self-aminoacylation numeric_value=1.64
biopolymer_sequence="CCACACGUCAAGCAAUCGGAC [Fam1B.1 aminoacylation ribozyme variant]" measured_attribute=self-aminoacylation numeric_value=0.681
biopolymer_sequence="AUUCACCUAGGUCAACAGGUG [Fam2.2 aminoacylation ribozyme variant]" measured_attribute=self-aminoacylation numeric_value=1.87
biopolymer_sequence="CUACUUCAAACAAUCGGCUUG [Fam1A.1 aminoacylation ribozyme variant]" measured_attribute=self-aminoacylation numeric_value=2.53
biopolymer_sequence="AAGUUUGAUAAUAGUCGGAAG [Fam3.1 aminoacylation ribozyme variant]" measured_attribute=self-aminoacylation numeric_value=0.436
biopolymer_sequence="ACUCACCUAUGUCAUCGGGUG [Fam2.2 aminoacylation ribozyme variant]" measured_attribute=self-aminoacylation numeric_value=6.08
biopolymer_sequence="CCACACUUCAAUCAAUGGGUC [Fam1B.1 aminoacylation ribozyme variant]" measured_attribute=self-aminoacylation numeric_value=0.467
biopolymer_sequence="AGUAGCCUGGUCAUCGAGUGA [Fam2.1 aminoacylation ribozyme variant]" measured_attribute=self-aminoacylation numeric_value=8.44
biopolymer_sequence="CUACUUCACACAAGCGGUCUG [Fam1A.1 aminoacylation ribozyme variant]" measured_attribute=self-aminoacylation numeric_value=1.01
biopolymer_sequence="AUUACCCUGGUGAACGAGUGA [Fam2.1 aminoacylation ribozyme variant]" measured_attribute=self-aminoacylation numeric_value=2.82
biopolymer_sequence="CUACUUCAAUCAAUCGGACUG [Fam1A.1 aminoacylation ribozyme variant]" measured_attribute=self-aminoacylation numeric_value=4.18
biopolymer_sequence="CUACUUCAAACAUUCAGUCUG [Fam1A.1 aminoacylation ribozyme variant]" measured_attribute=self-aminoacylation numeric_value=0.602
biopolymer_sequence="CUUACCCUGGUCAUCGAAUGA [Fam2.1 aminoacylation ribozyme variant]" measured_attribute=self-aminoacylation numeric_value=0.668
biopolymer_sequence="AUUACCGUGGUCAUCGGGUGA [Fam2.1 aminoacylation ribozyme variant]" measured_attribute=self-aminoacylation numeric_value=17.3
biopolymer_sequence="CUACUACAAACAAUCCGUCUG [Fam1A.1 aminoacylation ribozyme variant]" measured_attribute=self-aminoacylation numeric_value=0.855
biopolymer_sequence="CUCCACUUCAAGCAAUCGGUC [Fam1B.1 aminoacylation ribozyme variant]" measured_attribute=self-aminoacylation numeric_value=27.6
biopolymer_sequence="AUUACCCUGCUCAUCGAGAGA [Fam2.1 aminoacylation ribozyme variant]" measured_attribute=self-aminoacylation numeric_value=0.698
biopolymer_sequence="CUCCUUCAAACAAUCGGUCGG [Fam1A.1 aminoacylation ribozyme variant]" measured_attribute=self-aminoacylation numeric_value=24.2
biopolymer_sequence="AUUCACCUCGGUCAUCGGGUG [Fam2.2 aminoacylation ribozyme variant]" measured_attribute=self-aminoacylation numeric_value=7.49
biopolymer_sequence="CUAGUUUAAACAAUCGGUCUG [Fam1A.1 aminoacylation ribozyme variant]" measured_attribute=self-aminoacylation numeric_value=0.631
biopolymer_sequence="AUUACACUGGUCAUCGAGUCA [Fam2.1 aminoacylation ribozyme variant]" measured_attribute=self-aminoacylation numeric_value=0.497
